Test system: HepG2
protocol: Cytotoxicity against human HepG2 cells after 48 hrs
Assay type: functional, cell-based
condition_details: HepG2, 48 h
# maps each entry to its IC50
The answer consists of two parts: a number and, after it, its unit.

INSERT INTO assay_data (line_notation, assayed_target, observed_result) VALUES
  ('COc1cc([C@@H]2c3cc4c(cc3[C@@H](OCC/C(=N\S(C)(=O)=O)N(C)C)[C@H]3COC(=O)[C@H]23)OCO4)cc(OC)c1OC', 'HepG2', '4170 nM'),
  ('COc1cc([C@@H]2c3cc4c(cc3[C@@H](OCC/C(=N\S(C)(=O)=O)N3CCCC3)[C@H]3COC(=O)[C@H]23)OCO4)cc(OC)c1OC', 'HepG2', '20800 nM'),
  ('COc1cc([C@@H]2c3cc4c(cc3[C@H](O)[C@H]3COC(=O)[C@H]23)OCO4)cc(OC)c1OC', 'HepG2', '510 nM');

Problem: Reported IC50 for `COc1cc2c(c(OC)c1OC)-c1ccc(OC)c(=O)cc1[C@@H](NC(C)=O)CC2` : what is it?
Solution: 20 nM

Problem: Quick one: IC50 for `COc1cc([C@@H]2c3cc4c(cc3[C@@H](OCC/C(=N\S(C)(=O)=O)NCc3ccccc3)[C@H]3COC(=O)[C@H]23)OCO4)cc(OC)c1OC` ?
Solution: 17900 nM

Problem: Value lookup for IC50; key = `CCCN(CCC)/C(CCO[C@@H]1c2cc3c(cc2[C@@H](c2cc(OC)c(OC)c(OC)c2)[C@H]2C(=O)OC[C@@H]21)OCO3)=N/S(C)(=O)=O`
Solution: 2140 nM

Problem: Entry `COc1cc([C@@H]2c3cc4c(cc3[C@@H](OCC/C(=N\S(C)(=O)=O)N(C3CCCCC3)C3CCCCC3)[C@H]3COC(=O)[C@H]23)OCO4)cc(OC)c1OC` has what IC50?
Solution: 1950 nM

Problem: Please report the recorded IC50 for `COc1cc([C@@H]2c3cc4c(cc3[C@@H](OCC/C(=N\S(C)(=O)=O)N3CCCCC3)[C@H]3COC(=O)[C@H]23)OCO4)cc(OC)c1OC` .
Solution: 57100 nM

Problem: Fill in: IC50 of `COc1cc([C@@H]2c3cc4c(cc3[C@@H](OCC/C(N)=N\S(C)(=O)=O)[C@H]3COC(=O)[C@H]23)OCO4)cc(OC)c1OC` is ___
Solution: 2870 nM
